System: Ipomoea hederacea
Test: Postemergence herbicidal activity (Example 67)
Format: in vivo
Conditions: pos, 800 g/ha
Quantity kind: IPO HE rating

Please review the following examples before continuing.
C[C@H](NC(=O)c1nsc(-c2ccc(F)cc2)n1)c1ccccc1 :: 8 (91-99%)
O=C(Nc1ccc(F)cc1)c1nsc(-c2cccc(C(F)(F)F)c2)n1 :: 0
O=C(Nc1ccccc1)c1nsc(-c2cccc(C(F)(F)F)c2)n1 :: 0
COc1ccc(-c2nsc(C(=O)NC3CCCc4ccccc43)n2)cc1 (racemic) :: 2 (6-15%)
CC(NC(=O)c1nsc(-c2ccccc2F)n1)c1cccs1 (racemic) :: 7 (80-90%)
C[C@H](NC(=O)c1nc(-c2cccc(F)c2)ns1)c1ccccc1 :: 8 (91-99%)

State recorded IPO HE rating for all listed compounds.
1. COc1ccc(-c2nsc(C(=O)Nc3cccc4c3CCCC4)n2)cc1
2. C[C@H](NC(=O)c1nsc(-c2ccccc2F)n1)c1ccccc1

1: 0; 2: 8 (91-99%)

State recorded IPO HE rating for all listed compounds.
1. C[C@H](NC(=O)c1nc(-c2cccc(Cl)n2)ns1)c1ccccc1
2. C[C@H](NC(=O)c1nsc(-c2cccc(C(F)(F)F)c2)n1)c1ccccc1
3. O=C(NC1CCCc2ccccc21)c1nc(-c2ccccc2F)ns1 (racemic)
4. COc1ccc(-c2nc(C(=O)NC(C)c3cccs3)ns2)cc1 (racemic)

8 (91-99%)
2 (6-15%)
2 (6-15%)
8 (91-99%)

Output IPO HE rating of Cc1ccc(-c2nc(C(=O)NC(C)c3cccs3)ns2)cc1 (racemic)
3 (16-29%)

* * *

Test system: Beta vulgaris
Assay: Herbicidal activity, postemergence test (Example 66)
Assay type: in vivo
Conditions: post; 1000 g/ha; assessed visually twenty days after spraying
Method: To evaluate their herbicidal activity, compounds according to the invention are tested using a representative range of plants: ZEAMX Zea mays ORYSA Oryza sativa GLXMA Glycine max BEAVA Beta vulgaris LIUUT Linum usitatissimum AVEFA Avena fatua ECHCG Echinochloa crus-galli SINAL Sinapsis alba […] The herbicidal effects of the test compounds are assessed visually twenty days after spraying the foliage and the soil and are recorded on a 0-9 scale. […]
Quantity kind: herbicidal effects on a 0-9 scale, BEAVA
Answers are plain numbers.

State recorded herbicidal effects on a 0-9 scale, BEAVA for all listed compounds.
1. CC(C)(C)c1nsc(C(=O)NCc2cccs2)n1
2. CC(NC(=O)c1nsc(-c2ccccc2)n1)c1cccs1 (racemic)
3. CC(NC(=O)c1nc(C(C)(C)C)ns1)c1cccs1 (racemic)
4. CC(NC(=O)c1nc(-c2ccccc2)ns1)c1cccs1 (racemic)

1: 8; 2: 9; 3: 9; 4: 8

State recorded herbicidal effects on a 0-9 scale, BEAVA for all listed compounds.
1. CC(C)CNC(=O)c1nc(-c2ccc(F)cc2)ns1
2. O=C(NCc1ccccc1)c1nc(-c2ccc(F)cc2)ns1
3. CC(C)Cc1nsc(C(=O)NCc2cccs2)n1
4. C[C@H](NC(=O)c1nc(C(C)(C)C)ns1)c1ccccc1
5. CC(NC(=O)c1nc(-c2ccc(F)cc2)ns1)c1cccs1 (racemic)
6. CC(C)Cc1nsc(C(=O)NC(C)c2cccs2)n1 (racemic)
7. CC(C)Cc1nsc(C(=O)N[C@@H](C)c2ccccc2)n1
8. C=CCNC(=O)c1nc(-c2ccc(F)cc2)ns1

1: 8; 2: 9; 3: 4; 4: 9; 5: 9; 6: 8; 7: 9; 8: 8

* * *

Test system: Hordeum vulgare
Test: Postemergence herbicidal activity (Example 67)
Assay type: in vivo
Details: pos; 800 g/ha; rated after 10-21 days
For each of the molecules below, state its herbicide rating, HORVW.
Give bare numbers.

Please review the following examples before continuing.
COCCc1nsc(C(=O)N[C@@H](C)c2ccccc2)n1 :: 0
C[C@H](NC(=O)c1nc(C=Cc2ccccc2)ns1)c1ccccc1 :: 0

Output herbicide rating, HORVW of "CCCCc1nsc(C(=O)NCc2cccs2)n1"
0

* * *

System: Amaranthus retroflexus
Experiment: Postemergence herbicidal activity (Example 67)
Type: in vivo
Details: pos; 800 g/ha; rated after 10-21 days
Protocol: Herbicidal evaluation of compounds of the invention is conducted on the following plant species: The soil is a prepared horticultural substrate containing 30% peat, 20% volcanic clay, 30% bark residues and 20% polyamide/styromull in a 1:3 mixture with loamy sand. […] After 10-21 days, the treated plants are evaluated and rated according to the rating system provided below.
Quantity kind: herbicide rating, AMARE

CC(NC(=O)c1nsc(-c2ccc(F)cc2)n1)c1cccs1 (racemic) :: 3 (16-29%)
COc1ccc(-c2nsc(C(=O)NCc3cccs3)n2)cc1 :: 2 (6-15%)
CC(NC(=O)c1nc(-c2ccc(Cl)cc2)ns1)c1cccs1 (racemic) :: 6 (65-79%)
COCCc1nsc(C(=O)N[C@@H](C)c2ccccc2)n1 :: 0
C[C@H](NC(=O)c1nc(-c2ccc(Cl)cc2)ns1)c1ccccc1 :: 5 (45-64%)

State recorded herbicide rating, AMARE for all listed molecules.
1. CC(NC(=O)c1nc(C=Cc2ccccc2)ns1)c1cccs1 (racemic)
2. COc1ccc(-c2nsc(C(=O)NC(C)c3cccs3)n2)cc1 (racemic)
3. O=C(NCc1cccs1)c1nc(C=Cc2ccccc2)ns1

1: 1 (1-5%); 2: 3 (16-29%); 3: 0

* * *

System: Linum usitatissimum
Assay: Herbicidal activity, postemergence test (Example 66)
Format: in vivo
Conditions: post; 1000 g/ha; assessed visually twenty days after spraying
Protocol: To evaluate their herbicidal activity, compounds according to the invention are tested using a representative range of plants: ZEAMX Zea mays ORYSA Oryza sativa GLXMA Glycine max BEAVA Beta vulgaris LIUUT Linum usitatissimum AVEFA Avena fatua ECHCG Echinochloa crus-galli SINAL Sinapsis alba […] The herbicidal effects of the test compounds are assessed visually twenty days after spraying the foliage and the soil and are recorded on a 0-9 scale. […]
For each of the compounds below, state its herbicidal effects on a 0-9 scale, LIUUT.
One number for each entry.

State recorded herbicidal effects on a 0-9 scale, LIUUT for all listed compounds.
1. CC(C)c1nsc(C(=O)NCc2cccs2)n1 [Example 9]
2. O=C(NCc1ccccc1)c1nc(-c2ccc(F)cc2)ns1 [Example 20]

2
6

* * *

Tested on: Helianthus annuus
Assay: Preemergence herbicidal activity (Example 67)
Format: in vivo
Conditions: pre, 800 g/ha
Quantity kind: HEL AN rating
Answers are plain numbers.

State recorded HEL AN rating for all listed compounds.
1. CC(NC(=O)c1nc(-c2c(F)cccc2F)ns1)c1cccs1 (racemic)
2. O=C(Nc1ccc(F)cc1F)c1nsc(-c2cccc(C(F)(F)F)c2)n1
3. Cc1ccc(-c2nc(C(=O)NC(C)c3cccs3)ns2)cc1 (racemic)
4. O=C(Nc1cccc(F)c1)c1nsc(-c2cccc(C(F)(F)F)c2)n1
5. O=C(Nc1ccc(F)cc1)c1nsc(-c2cccc(C(F)(F)F)c2)n1

1. 0
2. 0
3. 0
4. 0
5. 0

* * *

For each of the molecules below, state its TRZ AW rating.
Test system: Triticum aestivum
Experiment: Postemergence herbicidal activity (Example 67)
Type: in vivo
Details: pos, 800 g/ha

C[C@H](NC(=O)c1nsc(-c2ccc(F)cc2)n1)c1ccccc1 [Example 40] :: 4 (30-44%)
C[C@H](NC(=O)c1nc(-c2c(F)cccc2F)ns1)c1ccccc1 [Example 59] :: 3 (16-29%)
O=C(NCc1cccs1)c1nc(-c2ccccc2F)ns1 [Example 50] :: 1 (1-5%)

Continue with the molecule presented below.
Output TRZ AW rating of O=C(NC1CCCc2ccccc21)c1nc(-c2ccccc2F)ns1 (racemic) [Example 53]
2 (6-15%)

* * *

System: Zea mays
Assay: Postemergence herbicidal activity (Example 67)
Type: in vivo
Settings: pos; 800 g/ha; rated after 10-21 days
Quantity kind: herbicide rating, ZEAMX

Please review the following examples before continuing.
C[C@H](NC(=O)c1nc(-c2ccc(Cl)cc2)ns1)c1ccccc1 :: 5 (45-64%)
COc1ccc(-c2nsc(C(=O)NC(C)c3cccs3)n2)cc1 (racemic) :: 3 (16-29%)

State recorded herbicide rating, ZEAMX for all listed compounds.
1. CC(NC(=O)c1nc(-c2ccc(Cl)cc2)ns1)c1cccs1 (racemic)
2. CC(NC(=O)c1nsc(-c2cccc(C(F)(F)F)c2)n1)c1cccs1 (racemic)
3. CC(NC(=O)c1nc(-c2ccccc2F)ns1)c1cccs1 (racemic)
4. CCCCc1nsc(C(=O)NCc2cccs2)n1
5. COc1ccc(-c2nsc(C(=O)N[C@@H](C)c3ccccc3)n2)cc1

4 (30-44%)
1 (1-5%)
3 (16-29%)
1 (1-5%)
1 (1-5%)

Output herbicide rating, ZEAMX of CC(NC(=O)c1nsc(-c2ccc(F)cc2)n1)c1cccs1 (racemic)
6 (65-79%)

* * *

For each of the compounds below, state its herbicide rating, AMARE.
Test system: Amaranthus retroflexus
Experiment: Postemergence herbicidal activity (Example 67)
Format: in vivo
Details: pos; 800 g/ha; rated after 10-21 days

Please review the following examples before continuing.
CCCCc1nsc(C(=O)N[C@@H](C)c2ccccc2)n1 :: 3 (16-29%)
CCCCc1nsc(C(=O)NC(C)c2cccs2)n1 (racemic) :: 3 (16-29%)
CC(NC(=O)c1nsc(-c2cccc(C(F)(F)F)c2)n1)c1cccs1 (racemic) :: 2 (6-15%)
C[C@H](NC(=O)c1nc(C=Cc2ccccc2)ns1)c1ccccc1 :: 2 (6-15%)

Continue with the compound presented below.
Output herbicide rating, AMARE of CC(NC(=O)c1nc(-c2ccccc2F)ns1)c1cccs1 (racemic)
3 (16-29%)

These data points were gathered from patent EP0726261A1.
